Each recorded value in this set is attributed to patent US7741346B2.

Measured melting point, listed per entry.

{"Compound": "CCCCCN(CCC12CC3CC(CC(C3)C1)C2)C(=O)NCC(Cc1ccncc1)Cc1ccncc1", "Attribute Measured": "melting point", "Result": "124 to 136 °C"}
{"Compound": "CCCCCN(CCC12CC3CC(CC(C3)C1)C2)C(=O)CNCCc1ccncc1.Cl.Cl", "Attribute Measured": "melting point", "Result": "133.7 to 137 °C"}
{"Compound": "CCCN(CCCC12CC3CC(CC(C3)C1)C2)C(=O)NCCCc1ccncc1.O=P(O)(O)O", "Attribute Measured": "melting point", "Result": "148 to 149 °C"}
{"Compound": "CN(CCN(CCC12CC3CC(CC(C3)C1)C2)C(=O)NCCCc1ccncc1)C(=O)CC(C)(C)C", "Attribute Measured": "melting point", "Result": "101.4 to 102.4 °C"}
{"Compound": "Cl.O=C(NCCCc1ccncc1)N(CCC12CC3CC(CC(C3)C1)C2)CCC12CC3CC(CC(C3)C1)C2", "Attribute Measured": "melting point", "Result": "120 to 122.5 °C"}
{"Compound": "CCCCCN(CCC12CC3CC(CC(C3)C1)C2)C(=O)NCc1ccccn1", "Attribute Measured": "melting point", "Result": "87.5 to 92 °C"}
{"Compound": "CCCCCN(CCC12CC3CC(CC(C3)C1)C2)C(=O)NCCC(=O)c1ccncc1", "Attribute Measured": "melting point", "Result": "103.5 to 104 °C"}
{"Compound": "CCCN(CCC12CC3CC(CC(C3)C1)C2)C(=O)NCCCc1ccncc1", "Attribute Measured": "melting point", "Result": "99 to 103 °C"}
{"Compound": "C=CCN(CCC12CC3CC(CC(C3)C1)C2)C(=O)NCCCc1ccncc1", "Attribute Measured": "melting point", "Result": "99 to 102 °C"}
{"Compound": "OCCN(CCc1ccccc1)C(=S)NCCCc1ccncc1", "Attribute Measured": "melting point", "Result": "105.6 to 107.1 °C"}

Continue with the next compound.
Need melting point of Cl.O=C(NCc1ccncc1)N(CCC1CCCCC1)Cc1cccs1 , thanks. 161.8 to 164.4 °C
